assay: clinical; details: male, human, plasma, oral, 721 g, Cmax, plasma, after 721 g mango juice, healthy men, n = 12, mean ± SD
Result Type: Cmax (ng/mL)
Form entry: value (ng/mL) — number only.

1. O=C(O)c1ccc(O)c(O)c1 34.5

Next item in the queue.
Request: What value of measured Cmax is listed for O=C(/C=C/c1ccc(O)c(O)c1)O[C@@H]1C[C@](O)(C(=O)O)C[C@@H](O)[C@H]1O ?
Response: 110

* * *

Each entry below carries its recorded Cmax.
assay: clinical; conditions: male, human, plasma, oral, 500 g, Cmax, plasma, after 500 g mango flesh, healthy men, n = 12, mean ± SD
Form entry: value (ng/mL) — number only.

1) O=C(O)c1ccc(O)c(O)c1 30.8

Next item in the queue.
Request: What value of measured Cmax is listed for O=C(/C=C/c1ccc(O)c(O)c1)O[C@@H]1C[C@](O)(C(=O)O)C[C@@H](O)[C@H]1O ?
Response: 49.7

* * *

test: clinical; conditions: male, human, in vivo, Tmax
Result Type: Tmax (h)
Form entry: value (h) — number only.

Request: What value of measured Tmax is listed for O=C(O)c1cc(O)ccc1O ?
Response: 4

* * *

test: clinical; conditions: plasma, dose-adjusted AUC 0 to 6 h, after 721 g mango juice, n = 12
Each entry below carries its recorded AUC/Dose.

1. COc1cc(/C=C/C(=O)O)ccc1O 83.8 ± 30.2 (ng h/mL)/mg
2. O=C(O)c1cc(O)ccc1O 282.7 ± 59.1 (ng h/mL)/mg

Request: What value of measured AUC/Dose is listed for O=C(O)c1ccc(O)c(O)c1 ?
Response: 204.90 ± 9.9 (ng h/mL)/mg

Request: What value of measured AUC/Dose is listed for O=C(/C=C/c1ccc(O)c(O)c1)O[C@@H]1C[C@](O)(C(=O)O)C[C@@H](O)[C@H]1O ?
Response: 50.12 ± 15.5 (ng h/mL)/mg

* * *

Each entry below carries its recorded Tmax.
assay: clinical; conditions: male, human, plasma, oral, 721 g, Tmax, plasma, after 721 g mango juice, healthy men, n = 12, mean ± SD
Form entry: value (h) — number only.

Compound	Tmax / h
O=C(O)c1ccc(O)c(O)c1 [Protocatechuic acid, protocatechuic acid]	3.7

Next item in the queue.
Request: What value of measured Tmax is listed for O=C(/C=C/c1ccc(O)c(O)c1)O[C@@H]1C[C@](O)(C(=O)O)C[C@@H](O)[C@H]1O [Chlorogenic acid, chlorogenic acid] ?
Response: 2.5

* * *

test: clinical; conditions: male, human, in vivo, Tmax, plasma, after 721 g mango juice, healthy men, n = 12, mean ± SD
Result Type: Tmax (h)
Form entry: value (h) — number only.

Request: What value of measured Tmax is listed for O=C(O)c1cc(O)c(O)c(O)c1 ?
Response: 3.5

* * *

experiment: clinical; settings: male, human, in vivo, Cmax
Result Type: Cmax (ng/mL)
Form entry: value (ng/mL) — number only.

Request: What value of measured Cmax is listed for O=C(O)c1cc(O)c(O)c(O)c1 ?
Response: 8.7

Request: What value of measured Cmax is listed for O=C(O)c1cc(O)ccc1O ?
Response: 11.8

* * *

assay: clinical; settings: plasma, dose-adjusted AUC 0 to 6 h, after 500 g mango flesh, n = 12
Result Type: AUC/Dose

Please review the following examples before continuing.
1. O=C(/C=C/c1ccc(O)c(O)c1)O[C@@H]1C[C@](O)(C(=O)O)C[C@@H](O)[C@H]1O 11.5 ± 1.78 (ng h/mL)/mg
2. O=C(O)c1cc(O)ccc1O 221.2 ± 34.0 (ng h/mL)/mg
3. O=C(O)c1ccc(O)c(O)c1 344.8 ± 138.3 (ng h/mL)/mg

Next item in the queue.
Request: What value of measured AUC/Dose is listed for COc1cc(/C=C/C(=O)O)ccc1O ?
Response: 31.0 ± 9.63 (ng h/mL)/mg
